target: OATP1B3 (Homo sapiens); construct: expressed in transfected cells; host or cells: MDCK-II; assay: Transporter inhibition in MDCK-II cells, OATP1B3; assay type: in vitro ADME; conditions: OATP1B3 in MDCK-II cells; probe CCK-8 2 μM; read-out: Estimated IC50 using nominal concentrations
Sequence (Q9NPD5 whole entry): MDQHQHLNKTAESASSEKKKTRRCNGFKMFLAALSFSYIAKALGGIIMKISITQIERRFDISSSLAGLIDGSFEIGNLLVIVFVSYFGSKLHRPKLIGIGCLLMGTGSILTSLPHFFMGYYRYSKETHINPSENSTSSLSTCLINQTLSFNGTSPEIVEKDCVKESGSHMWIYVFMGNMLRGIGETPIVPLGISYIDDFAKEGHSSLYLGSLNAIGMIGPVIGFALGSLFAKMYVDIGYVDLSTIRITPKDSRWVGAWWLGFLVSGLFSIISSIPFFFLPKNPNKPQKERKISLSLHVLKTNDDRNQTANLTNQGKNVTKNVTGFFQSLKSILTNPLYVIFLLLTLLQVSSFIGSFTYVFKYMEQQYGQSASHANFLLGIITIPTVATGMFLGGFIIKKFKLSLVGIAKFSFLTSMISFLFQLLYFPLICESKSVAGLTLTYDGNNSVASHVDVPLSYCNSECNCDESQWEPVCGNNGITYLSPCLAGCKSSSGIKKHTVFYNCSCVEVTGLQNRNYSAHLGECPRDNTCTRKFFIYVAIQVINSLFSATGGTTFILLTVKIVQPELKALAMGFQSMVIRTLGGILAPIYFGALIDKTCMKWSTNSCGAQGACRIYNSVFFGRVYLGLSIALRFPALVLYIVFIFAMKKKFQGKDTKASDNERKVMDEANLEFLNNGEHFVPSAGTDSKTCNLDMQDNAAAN
measurement-label: pIC50
Answers are plain numbers, as −log10 of the molar value.

Given the entry COC[C@H](NC(=O)c1ccn(S(C)(=O)=O)c1)C(=O)Nc1nc(-c2cccc(N3C[C@@H](C)O[C@@H](C)C3)n2)cs1 [compound of formula (I)] , what pIC50 was observed with OATP1B3 (Homo sapiens)?
4.94
